Where do these numbers come from? They come from the OPERA property sets (Mansouri et al. 2018).

settings: 25 °C
metric: solubility (mM)

INSERT INTO measurements (molecule, datavalue) VALUES
  ('O=C(O)CC1CCCCC1', 20.3),
  ('CCCCCCC(C)O (racemic)', 9.2),
  ('CCC1CO1 (centres undefined)', 1040),
  ('O=C(O)c1ccc[n+]([O-])c1', 50.3),
  ('COc1c(O)c(Cl)c(Cl)c(Cl)c1Cl', 0.016),
  ('c1ccc2nc3ccccc3cc2c1', 0.214),
  ('Cc1ccc2c(ccc3ccccc32)c1', 0.00146),
  ('C=C(C)C(=C)C', 3.97),
  ('O=CC=Cc1ccccc1', 10.7);
